- Test system: Mus musculus
- PROTOCOL TEXT: Unbound clearance in mouse at 1 mg/kg, iv or 1 mg/kg, po
- Assay type: ADME, organism-based
- CONDITION LABEL: in vivo
MEASURED ENDPOINT: CL free (mL/min/kg)
One number for each entry, in mL/min/kg.

Examples with answers:
Asked: Request body: readout CL free, system Mus musculus, query Cn1cc2c(cc1=O)OCCCCc1cc(Cl)ccc1Oc1ccc(CS(C)(=O)=O)cc1-2 . Return the value.
Given back: 400

Asked: Could you share what CL free was measured for CCS(=O)(=O)Nc1cnc2c(c1)-c1cn(C)c(=O)cc1OCCCCc1cc(Cl)ccc1O2 , tested on Mus musculus?
Given back: 102

Asked: Give recorded CL free with Mus musculus for the following molecule: CCS(=O)(=O)Nc1cnc2c(c1)-c1cn(C)c(=O)cc1OCCCCc1cc(F)cc(F)c1O2
Given back: 317

Asked: Record lookup: for Mus musculus, what CL free belongs to CCS(=O)(=O)c1cnc2c(c1)-c1cn(C)c(=O)cc1OCCCCc1cc(Cl)ccc1O2 ?
Given back: 140

Asked: For the record Cn1cc2c(cc1=O)OCCCCc1cc(Cl)ccc1Oc1ncc(CS(C)(=O)=O)cc1-2 , what value of CL free is listed for Mus musculus?
Given back: 88.3

Asked: Short answer please: CL free, Mus musculus, entry CCS(=O)(=O)Nc1ccc2c(c1)-c1cn(C)c(=O)cc1OCCCCc1cc(Cl)ccc1O2
Given back: 417

---
Asked: Fill in the recorded CL free for this molecule, with Mus musculus as test system: CCS(=O)(=O)c1ccc2c(c1)-c1cn(C)c(=O)cc1OCCCCc1cc(Cl)ccc1O2
Given back: 167
